B1: glmS ribozyme (parent)
chain: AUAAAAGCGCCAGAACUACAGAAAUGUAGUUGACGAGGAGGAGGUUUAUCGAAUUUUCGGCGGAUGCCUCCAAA

# Variants of: B1
# test-description: KM; higher = weaker cofactor use; RNA array
# experimental-conditions: with glucosamine-6-phosphate
We use 1000 µM as the dividing line for KM: on or above the line is t, below is f.

Study these solved cases before continuing.
AUAAAAGCGCCAGAACUACAGAAAUGUAGUUGACGAGGAGGGGGUUUAUCGAAUUUUCGGCGGAUGCCUGCAAA | f
AUAAAAGCGCCAGAACUACAGAAAUGUAGUCGACGAGGAGGAGGUUUAUCGAAUGUUCGGCGGAUGCCUCCAAA | t
AUAAAAGCGCCAGCACUACAGAAAUGUAGUUGACGAGGAGGAGGUAUAUCGAAUUUUCGGCGGAUGCCUCCAAA | t

For this variant, is measured KM 1000 µM or higher? `AUAAAAGCGCCAGUACUACAGAAAUGUAGUUCACGAGGAGGAGGUUUAUCGAAUUUUCGGCGGAUGCCUCCAAA`
t

For this variant, is measured KM 1000 µM or higher? `AUAAAAGCGCCAGAACUACAGAAAUGUAGUUGACGAGGAGGAGUUUUAUCGAAUUAUCGGCGGAUGCCUCCAAA`
t

For this variant, is measured KM 1000 µM or higher? `AUAAAAGCGCCAGAACUACAGAAAUGUAGUUGACGAGGAGGUGGUUUAUCGAAUGUUCGGCGGAUGCCUCCAAA`
f

For this variant, is measured KM 1000 µM or higher? `AUAAAAGCGCCAGAACUACAGAAAUGUAGUUGACGAGGUGGAGGUUUAUCGAAUUUUCGGCGGAUGGCUCCAAA`
t

For this variant, is measured KM 1000 µM or higher? `AUAAAAGCGCCAGAGCUACAGAAAUGUAGUUGACGAGGAGGAGAUUUAUCGAAUUUUCGGCGGAUGCCUCCAAA`
t

For this variant, is measured KM 1000 µM or higher? `AUAAAAGCGCCAGAACUACAGAAAUGUAGUUGACGAGGAGGAGGGUUAUCGAAUGUUCGGCGGAUGCCUCCAAA`
t

For this variant, is measured KM 1000 µM or higher? `AUAAAAGCGCCAGAACUACAGAAAUGUAGUUGACGAGGAGGAGGUUCAUCGAUUUUUCGGCGGAUGCCUCCAAA`
t
